- procedure details: RP, Waters ACQUITY UPLC BEH C18, 100 × 2.1 mm, 1.7 µm, 65 °C, 0.4 mL/min, estimated dead time 0.55 min; A: water + 0.1% formic acid, pH 3; B: 80% acetonitrile + 20% acetone + 0.1% formic acid, pH 3; gradient (min/%B) 0/0 5/100 5.5/0 6/0
- assay setup: stereoisomer not certain
Lab note: anything with LC retention time below 2 min is marked T; values at 2 min or higher are marked F.

# compound, label value
data = [
    ("Cn1cnc2c1c(=O)[nH]c(=O)n2C", "T"),
    ("Nc1ccc(C(=O)O)cc1", "T"),
    ("O=C(O)CCc1ccc(O)c(O)c1 [Dihydrocaffeic acid]", "T"),
    ("Oc1ccccc1O", "T"),
    ("COc1cc(CC2COC(=O)C2Cc2ccc(O)c(OC)c2)ccc1O (single isomer, unassigned; (-)) [(-)-Matairesinol]", "F"),
    ("COc1cc(CC(CO)C(CO)Cc2ccc(O)c(OC)c2)ccc1O (single isomer, unassigned; (-)) [(-)-Secoisolariciresinol]", "F"),
    ("O=C(O)CNC(=O)c1ccco1", "T"),
    ("O=C(O)CCCCCCCC(=O)O", "F"),
]

Just wondering, is LC retention time of `Cn1c(=O)[nH]c2[nH]c(=O)[nH]c2c1=O` below 2 min? T

Just wondering, is LC retention time of `Cn1c(=O)c2[nH]c(=O)[nH]c2n(C)c1=O` below 2 min? T

Just wondering, is LC retention time of `O=C(O)CCc1c[nH]c2ccccc12` below 2 min? F

Just wondering, is LC retention time of `O=C(CCc1ccc(O)cc1)c1c(O)cc(O)cc1O` below 2 min? F

Just wondering, is LC retention time of `COc1ccc(-c2oc3cc(O)cc(O)c3c(=O)c2O)cc1O` below 2 min? F

Just wondering, is LC retention time of `c1coc(CNc2ncnc3nc[nH]c23)c1` below 2 min? T

Just wondering, is LC retention time of `O=C(O)CCc1ccc(O)cc1` below 2 min? F

Just wondering, is LC retention time of Cc1cc2nc3c(=O)[nH]c(=O)nc-3n(CC(O)C(O)C(O)CO)c2cc1C (stereo not given) below 2 min? T

Just wondering, is LC retention time of O=C(O)c1ccc(O)cc1 [4-Hydroxybenzoic acid] below 2 min? T

Just wondering, is LC retention time of COc1cc(CC2COC(c3ccc(O)c(OC)c3)C2CO)ccc1O (single isomer, unassigned; (+)) [(+)-Lariciresinol] below 2 min? F

====

- procedure details: RP, 150 × 2.1 mm, 2.6 µm, 40 °C, 0.35 mL/min, estimated dead time 0.94 min; A: water + 0.1% formic acid, pH 3; B: acetonitrile + 0.1% formic acid, pH 3; gradient (min/%B) 0/0 1/5 7/45 8.5/80 10.5/80 11/5 12/5
- assay setup: stereoisomer not certain
The entries below are paired with their reported LC retention time.
Write the value in min as a bare number.

Check out these entries, answers already filled in.
# compound, LC retention time (min)
records = [
    ("OCCc1c[nH]c2ccccc12", 6.48),
    ("O=c1ccc2ccc(O)cc2o1", 7.69),
    ("O=c1cc(O)c2ccccc2o1 [4-hydroxycoumarin]", 6.59),
    ("O=C(O)c1cc(O)ccc1O", 4.37),
]

# query: LC retention time of entry `O=c1c(-c2ccc(O)cc2)coc2cc(O)cc(O)c12` 8.03

# query: LC retention time of entry O=C(OC1Cc2c(O)cc(O)cc2OC1c1cc(O)c(O)c(O)c1)c1cc(O)c(O)c(O)c1 (single isomer, unassigned; (-)) [(-)-Epigallocatechin gallate] 5.02

# query: LC retention time of entry O=C1CC(c2ccc(O)cc2)Oc2cc(O)cc(O)c21 (stereo unspecified) 7.97

# query: LC retention time of entry `O=C(O)c1cc2ccccc2[nH]1` 6.07

# query: LC retention time of entry `NCCc1c[nH]c2ccc(O)cc12` 1.45

# query: LC retention time of entry `O=C(O)CCCc1c[nH]c2ccccc12` 7.97

# query: LC retention time of entry O=S(=O)(O)c1[nH]c2ccccc2c1CCO [Tryptophol-2-sulfonate] 4.57

# query: LC retention time of entry `O=c1cc(-c2ccc(O)c(O)c2)oc2cc(O)cc(O)c12` 7.52

# query: LC retention time of entry O=C1CC(c2ccc(O)c(O)c2)Oc2cc(O)cc(O)c21 (stereo unspecified) 7.21

# query: LC retention time of entry O=C(O)Cc1ccc(O)cc1 [4-Hydroxyphenylacetic acid] 4.34
